B1: library; numbered along this chain (parent)
chain: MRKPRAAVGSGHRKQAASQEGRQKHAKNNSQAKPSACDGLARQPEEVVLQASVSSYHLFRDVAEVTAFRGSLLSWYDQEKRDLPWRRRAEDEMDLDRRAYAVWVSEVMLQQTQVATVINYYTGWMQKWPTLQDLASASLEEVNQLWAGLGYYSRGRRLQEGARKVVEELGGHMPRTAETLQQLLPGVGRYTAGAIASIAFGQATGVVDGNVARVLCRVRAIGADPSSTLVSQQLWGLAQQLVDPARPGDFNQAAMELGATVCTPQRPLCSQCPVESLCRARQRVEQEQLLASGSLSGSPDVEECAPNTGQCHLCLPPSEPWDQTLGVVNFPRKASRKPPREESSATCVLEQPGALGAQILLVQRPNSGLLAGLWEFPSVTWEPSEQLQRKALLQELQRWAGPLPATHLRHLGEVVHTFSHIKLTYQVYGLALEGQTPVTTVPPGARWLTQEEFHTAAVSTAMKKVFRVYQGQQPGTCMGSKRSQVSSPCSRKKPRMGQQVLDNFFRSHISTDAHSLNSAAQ

- Variants of: B1
- test description: 8OG:A repair function score (normalized; synonymous = 0, nonsense = -1) (normalized log-likelihood score); higher = more repair activity (WT-like);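 also: cells sorted at 72 h after reporter transfection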
- condition notes: with 8OG:A DNA repair reporter (GFP) in HEK-293 MUTYH KO cells
Recorded measurements of 8OG:A repair function score, one per entry
Form: value (number only, do not type unit).

L72D ... -1.11

// query 8OG:A repair function score value for entry G434I
-0.0439

// query 8OG:A repair function score value for entry V62F
0.00406

// query 8OG:A repair function score value for entry G148D
-0.544

// query 8OG:A repair function score value for entry F330H
-0.37

// query 8OG:A repair function score value for entry D224A
-0.954
